test: gradient 5% acetonitrile 3 min, to 50% in 2 min, to 85% in 15 min, held 3 min, 100 µL/min; conditions: column: Zorbax Extend-C18 2.1 x 50 mm; eluents: water / acetonitrile, 0.1% formic acid
quantity.kind: RP-LC retention time (s)

Some compounds with known RP-LC retention time results, for comparison:
CC(=O)c1ccc(NC(=O)CN2C(=O)C3CCCCN3c3ccc(C(=O)N4CCCC4)cc32)cc1 (centres undefined); 996
CCN1C(=O)c2cc(S(=O)(=O)Nc3cc(F)cc(F)c3)ccc2Oc2cccnc21; 1040
Cc1[nH]c(C)c(S(=O)(=O)N2CCC(C(=O)N3CCCCC3C)CC2)c1C(=O)N1CCCCC1 (centres undefined); 724
CCOC(=O)c1c(CN2CCN(CCO)CC2)n(C)c2cc(Br)c(OC(C)=O)cc12; 679
COc1cccc(-n2c(=O)c(C(=O)Nc3ccc(F)c(F)c3)c(O)c3cccnc32)c1; 1250
COc1cc2ncc(C(=O)c3ccccc3)c(N3CCN(C)CC3)c2cc1OC; 556
Cc1ccc(NC(=O)c2cnc(-c3ccccc3)nc2-c2ccncc2)c(Br)c1; 987
CCOc1ccc(N2CC(c3nc(-c4ccc5c(c4)OCO5)no3)CC2=O)cc1 (centres undefined); 982

A = CCc1c(C2CCN(C(=O)c3ccc(OC)nc3)CC2)noc1N
B = COc1ccc2c(c1)C=C(C(=O)Nc1ccccc1F)C=CO2
Exercise: Form field 'greater RP-LC retention time' accepts A or B ; which applies? Give the chosen item's label as your response.
Key: B
(B: 1020 s, A: 663 s)

# credit: the METLIN SMRT retention time set (Domingo-Almenara et al. 2019)
